Measured IC50, listed per entry for reference.
assay system: Recombinant human cathepsin A (Homo sapiens, UniProt P10619)
Construct: Recombinant human cathepsin A (residues 29-480, with a C-terminal 10-His tag); 10-His (C); purchased R&D Systems 1049-SE
Sequence (P10619 29-312 limits assumed): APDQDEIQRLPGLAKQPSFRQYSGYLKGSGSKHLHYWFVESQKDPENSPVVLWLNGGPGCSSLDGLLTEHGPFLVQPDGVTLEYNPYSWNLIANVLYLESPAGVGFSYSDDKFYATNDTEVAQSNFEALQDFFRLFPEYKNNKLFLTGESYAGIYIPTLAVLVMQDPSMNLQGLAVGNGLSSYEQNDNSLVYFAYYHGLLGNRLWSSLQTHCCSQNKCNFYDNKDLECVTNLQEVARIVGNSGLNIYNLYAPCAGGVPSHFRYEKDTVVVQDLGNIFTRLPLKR
Sequence (P10619 327-480 limits assumed): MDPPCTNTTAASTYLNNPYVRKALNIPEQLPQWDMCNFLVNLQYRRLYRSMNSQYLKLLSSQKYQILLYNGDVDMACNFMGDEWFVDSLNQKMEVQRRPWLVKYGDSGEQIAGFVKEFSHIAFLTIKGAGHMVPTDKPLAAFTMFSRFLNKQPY
test protocol: Cathepsin A inhibitory activity
Type: biochemical
conditions used: read-out: Activity (2): Cathepsin A inhibitory activity, IC50 class

[
  {
    "compound": "O=C(O)CC(NC(=O)c1cc(O)n(-c2ccccc2)n1)c1ccccc1Cl (stereo not drawn)",
    "IC50": "100 to 1000 nM"
  },
  {
    "compound": "O=C(O)CC(NC(=O)c1cc(O)n(-c2cccc(F)c2)n1)c1ccc(Cl)cc1F (stereo not drawn)",
    "IC50": "100 to 1000 nM"
  },
  {
    "compound": "CC(C)(C)[C@@](C)(O)COc1cc(C(=O)N[C@@H](CC(=O)O)c2ccccc2F)nn1-c1ccccc1F",
    "IC50": "100 to 1000 nM"
  }
]

====

assay system: Recombinant human cathepsin A (Homo sapiens, UniProt P10619)
Construct: Recombinant human cathepsin A (residues 29-480, with a C-terminal 10-His tag); 10-His (C); purchased R&D Systems 1049-SE
test protocol: Cathepsin A inhibitory activity
Assay type: biochemical
conditions used: read-out: Activity (2): Cathepsin A inhibitory activity, IC50 class
pIC50: −log10 of the molar value.

[
  {
    "molecule": "O=C(O)CC(NC(=O)c1cc(O)n(-c2cccc(F)c2)n1)c1ccc(-c2cccc(F)c2)cc1 (centres unmarked) [Example 319]",
    "assay system": "Recombinant human cathepsin A (Homo sapiens, UniProt P10619)",
    "pIC50": "6.00 to 7.00"
  },
  {
    "molecule": "CC(C)[C@@](C)(O)COc1cc(C(=O)N[C@@H](CC(=O)O)c2ccc(Cl)cc2Cl)nn1-c1ccccc1F [Example 816]",
    "assay system": "Recombinant human cathepsin A (Homo sapiens, UniProt P10619)",
    "pIC50": "> 7.00"
  },
  {
    "molecule": "O=C(O)C[C@H](NC(=O)c1cc(O)n(-c2ccc(Cl)cc2)n1)c1ccc(Cl)cc1 [Example 296]",
    "assay system": "Recombinant human cathepsin A (Homo sapiens, UniProt P10619)",
    "pIC50": "6.00 to 7.00"
  },
  {
    "molecule": "Cc1ccc(C(CC(=O)O)NC(=O)c2cc(O)n(-c3cc(C)ccc3C)n2)cc1 (centres unmarked) [Example 50]",
    "assay system": "Recombinant human cathepsin A (Homo sapiens, UniProt P10619)",
    "pIC50": "4.52 to 6.00"
  },
  {
    "molecule": "Cc1ccc(C(CC(=O)O)NC(=O)c2cc(O)n(-c3ccc(F)cc3)n2)c(C)c1 (centres unmarked) [Example 89]",
    "assay system": "Recombinant human cathepsin A (Homo sapiens, UniProt P10619)",
    "pIC50": "6.00 to 7.00"
  },
  {
    "molecule": "COc1ccc(C(CC(=O)O)NC(=O)c2cc(O)n(-c3ccccc3F)n2)c(F)c1 (centres unmarked) [Example 133]",
    "assay system": "Recombinant human cathepsin A (Homo sapiens, UniProt P10619)",
    "pIC50": "6.00 to 7.00"
  },
  {
    "molecule": "O=C(O)CC(NC(=O)c1cc(O)n(-c2ccc(Cl)cc2)n1)c1cccc(Cl)c1F (centres unmarked) [Example 288]",
    "assay system": "Recombinant human cathepsin A (Homo sapiens, UniProt P10619)",
    "pIC50": "4.52 to 6.00"
  },
  {
    "molecule": "Cc1ccc(C(CC(=O)O)NC(=O)c2cc(O)n(-c3ccc(Cl)cc3)n2)c(C)c1 (centres unmarked) [Example 291]",
    "assay system": "Recombinant human cathepsin A (Homo sapiens, UniProt P10619)",
    "pIC50": "6.00 to 7.00"
  }
]
